Recorded values, source patent US20220025056A1.

- tested-target: T1, human ILT4 (LILRB2) on CHO cells (human, UniProt Q8N423 23-597)
- T1 construct: also called CHO ILT4 cell line
- T1 sequence (Q8N423 other isoform, or with tags, fused parts or gaps): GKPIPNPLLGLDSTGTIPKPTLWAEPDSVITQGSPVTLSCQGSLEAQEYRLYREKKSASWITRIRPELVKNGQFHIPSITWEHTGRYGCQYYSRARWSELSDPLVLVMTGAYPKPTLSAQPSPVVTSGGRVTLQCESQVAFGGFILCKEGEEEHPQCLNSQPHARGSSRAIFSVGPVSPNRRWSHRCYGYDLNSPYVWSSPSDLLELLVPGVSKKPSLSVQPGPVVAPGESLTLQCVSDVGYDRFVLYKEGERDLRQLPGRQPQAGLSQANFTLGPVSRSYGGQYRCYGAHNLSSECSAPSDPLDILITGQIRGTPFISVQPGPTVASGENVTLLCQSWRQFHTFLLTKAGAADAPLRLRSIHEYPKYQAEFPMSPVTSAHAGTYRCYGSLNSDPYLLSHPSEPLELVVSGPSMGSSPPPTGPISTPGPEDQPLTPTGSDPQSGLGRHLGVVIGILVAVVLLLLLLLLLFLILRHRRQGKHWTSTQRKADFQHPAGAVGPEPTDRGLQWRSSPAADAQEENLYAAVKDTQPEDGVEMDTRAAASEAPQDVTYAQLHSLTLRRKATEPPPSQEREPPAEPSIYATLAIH
- experiment: flow cytometry, CHO transfectants

| binder | binding result |
| --- | --- |
| 26D8 (antibody, human IgG1, V domains shown) VH: QVQLQQSGAELVKPGASVKLSCKASGYTFTEHTIHWIKQRSGQGLEWIGWFYPGSGSMKYNEKFKDKATLTADKSSSTVYMELTRLTSEDSAVYFCARHTNWDFDYWGQGTTLTVSS VL: DIVLTQSPASLAVSLGQRATISCKASQSVDYGGDSYMNWYQQKPGQPPKLLIYAASNLESGIPARFSGSGSGTDLTLNIHPVEEDDAAMYYCQQSNEEPWTFGGGTKLEIK | no binding |
| 3H5 (antibody, human IgG1, V domains shown) VH: QVQLKESGPGLVAPSQSLSITCTVSGFSLTSYGVSWVRQPPGKGLEWLGVIWGDGSTNYHSALISRLSISKDNSKSQVFLKLNSLQTDDTATYYCAKPRWDDYAMDYWGQGTSVTVSS VL: DIQMTQTTSSLSASLGDRVTISCRASQDISNYLNWYQQKPDGTVKLLIYYTSRLHSGVPSRFSGSGSGTDYSLTISNLEQEDIATYFCQQGNTLWTFGGGTKLEIK | no binding |
| 12D12 (antibody, human IgG1, V domains shown) VH: QVQLQQPGAELVKPGASVRMSCKASGYTFTSYWVHWVKQRPGQGLEWIGVIDPSDSYTSYNQNFKGKATLTVDTSSKTAYIHLSSLTSEDSAVYFCARGERYDGDYFAMDYWGQGTSVTVSS VL: DIVMTQSPASLSVSVGETVTITCRASENIYSNLAWYQQKQGKSPQLLVYAATNLADGVPSRFSGSRSGTQYSLKINSLQSEDFGTYYCQHFWNTPRTFGGGTKLEIK | no binding |
